Sourced from ChEMBL document CHEMBL1143480

biological target: 5-hydroxytryptamine receptor 6 (Homo sapiens, UniProt P50406); experiment: Binding affinity against 5-hydroxytryptamine 6 receptor of human caudate
Sequence (P50406 whole entry): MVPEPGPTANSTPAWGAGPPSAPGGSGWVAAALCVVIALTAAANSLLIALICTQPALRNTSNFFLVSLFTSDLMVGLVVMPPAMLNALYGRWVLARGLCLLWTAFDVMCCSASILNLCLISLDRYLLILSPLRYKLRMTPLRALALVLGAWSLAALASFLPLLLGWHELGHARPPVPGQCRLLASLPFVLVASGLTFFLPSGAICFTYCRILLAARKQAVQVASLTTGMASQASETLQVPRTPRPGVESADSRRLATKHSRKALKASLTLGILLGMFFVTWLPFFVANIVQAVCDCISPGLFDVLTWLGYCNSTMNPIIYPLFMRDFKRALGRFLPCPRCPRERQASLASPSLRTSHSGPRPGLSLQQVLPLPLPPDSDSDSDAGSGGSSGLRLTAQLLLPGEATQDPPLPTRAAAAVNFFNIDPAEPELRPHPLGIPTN
pKi: −log10 of the molar value.
Outcome Measure: pKi

                               smiles_entry  endpoint_result
0  O=S(=O)(c1cccc(Cl)c1)n1ccc2c(N3CCNCC3)c(Cl)ccc21             8.10

* * *

biological target: UniProt P50406; experiment: Displacement of [3H]LSD from human 5-hydroxytryptamine 6 receptor expressed in HeLa cells; assay type: cell-based
Returns: string. Value is rule met if measured Ki is below 0.6 nM, and rule not met if it is greater than or equal to it.

In [3]: df
Out[3]:
                               smiles_entry  assigned_label
0  O=S(=O)(c1ccccc1)n1ccc2c(N3CCNCC3)c(Cl)ccc21    rule not met
1  O=S(=O)(c1ccccc1Cl)n1ccc2c(N3CCNCC3)cccc21        rule met
2  O=S(=O)(c1cccc(Cl)c1)n1cc(Cl)c2c(N3CCNCC3)cccc21        rule met
3  Cc1cn(S(=O)(=O)c2cccc(Cl)c2)c2cccc(N3CCNCC3)c12    rule not met
4  O=S(=O)(c1cccc2ccccc12)n1ccc2c(N3CCNCC3)c(Cl)ccc21    rule not met

* * *

biological target: 5-hydroxytryptamine receptor 6 (Homo sapiens, UniProt P50406); assay: Displacement of [3H]LSD from human 5-hydroxytryptamine 6 receptor expressed in HeLa cells; assay type: cell-based
pKi: −log10 of the molar value.
Outcome Measure: pKi

>>> df
                               smiles_entry  endpoint_result
0  O=S(=O)(c1ccccc1)c1coc2c(N3CCNCC3)cccc12             8.90
1  O=S(=O)(c1ccccn1)n1ccc2c(N3CCNCC3)cccc21             9.00
2  Cc1cc2c(N3CCNCC3)cccc2n1S(=O)(=O)c1cccc(Cl)c1             9.40
3  O=S(=O)(c1ccc(Cl)cc1)n1ccc2c(N3CCNCC3)cccc21             8.70
4  O=S(=O)(c1ccc2ccccc2c1)n1ccc2c(N3CCNCC3)c(Cl)ccc21             7.60
5  O=S(=O)(c1cccc(Cl)c1)n1ccc2c(N3CCNCC3)cccc21             9.60
6  O=S(=O)(c1cccc(Cl)c1)n1ccc2c(N3CCNCC3)ccc(Cl)c21             9.50
7  O=S(=O)(c1ccccc1)c1c[nH]c2c(N3CCNCC3)nccc12             7.60

* * *

target: 5-hydroxytryptamine receptor 6 (Homo sapiens); test: Displacement of [3H]LSD from human 5-hydroxytryptamine 6 receptor expressed in HeLa cells; assay type: cell-based
Here, each record is paired with measured Ki data.
Outcome Measure: Ki (nM)

In [3]: df
Out[3]:
                               smiles_entry  endpoint_result
0  O=S(=O)(c1ccccc1Cl)n1ccc2c(N3CCNCC3)c(Cl)ccc21                1
1  O=S(=O)(c1ccccn1)n1ccc2c(N3CCNCC3)c(Cl)ccc21            0.501
2  N#Cc1ccc2c(ccn2S(=O)(=O)c2cccc(Cl)c2)c1N1CCNCC1             5.01
3  Cn1cc(S(=O)(=O)c2cccc(Cl)c2)c2cccc(N3CCNCC3)c21             2.51
4  O=S(=O)(c1cccc(Cl)c1)n1ccc2c(N3CCNCC3)c(Cl)ccc21             2.51
5  O=S(=O)(c1ccccc1)c1csc2c(N3CCNCC3)cccc12            0.501
6  Cc1c(S(=O)(=O)n2ccc3c(N4CCNCC4)cccc32)sc2ccc(Cl)cc12             3.16
7  O=S(=O)(c1cccc(Cl)c1)c1c[nH]c2c(N3CCNCC3)cccc12            0.316
8  O=S(=O)(c1ccc(Cl)cc1)n1ccc2c(N3CCNCC3)c(Cl)ccc21             6.31
9  O=S(=O)(c1ccccc1)c1c[nH]c2c(N3CCNCC3)ccnc12             7.94
